target under test: recombinant human TFPI (tissue factor pathway inhibitor) (human, UniProt P10646 29-304)
test name: cell-based or functional assay
outcome measure: FXa assay OD, 10 nM Ab, 10 nM TFPI
Enter the number alone.

- binder: "clone 3 (antibody, V domains shown) VH: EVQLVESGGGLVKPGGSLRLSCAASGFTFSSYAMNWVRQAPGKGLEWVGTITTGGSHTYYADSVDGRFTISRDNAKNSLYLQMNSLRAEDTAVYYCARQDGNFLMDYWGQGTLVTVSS VL: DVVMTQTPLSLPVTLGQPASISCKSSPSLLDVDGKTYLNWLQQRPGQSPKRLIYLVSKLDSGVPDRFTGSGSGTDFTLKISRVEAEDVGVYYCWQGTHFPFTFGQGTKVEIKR"
  FXa assay OD, 10 nM Ab, 10 nM TFPI: 0.536

Kindly review the next binder as well.
Problem: Can you share its FXa assay OD, 10 nM Ab, 10 nM TFPI? I mean this binder: clone 1023 (antibody, V domains shown, scFv on yeast at selection; human IgG4/kappa IgG as purified) VH: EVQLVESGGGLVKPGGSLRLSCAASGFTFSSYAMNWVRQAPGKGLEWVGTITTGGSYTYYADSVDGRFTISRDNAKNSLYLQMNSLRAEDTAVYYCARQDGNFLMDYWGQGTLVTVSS VL: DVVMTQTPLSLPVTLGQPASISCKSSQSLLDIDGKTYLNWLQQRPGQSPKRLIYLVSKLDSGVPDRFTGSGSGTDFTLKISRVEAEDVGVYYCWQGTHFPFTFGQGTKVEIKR
Result: 0.626

Where do the numbers come from? From patent US20180030151A1.
